Assay: Cmax in morbidly obese adult human at 4 mg/kg, iv administered as single dose 30 mins infusion
Format: ADME, organism-based
Set-up: dose 4 mg/kg, route intravenous
Conditions: in vivo
Experimental endpoint: Cmax (µg/mL)
Give just the numeric value; µg/mL need not be written.

Complete the entry with Cmax for `CCCCCCCCCC(=O)N[C@@H](Cc1c[nH]c2ccccc12)C(=O)N[C@H](CC(N)=O)C(=O)N[C@@H](CC(=O)O)C(=O)N[C@@H]1C(=O)NCC(=O)N[C@@H](CCCN)C(=O)N[C@@H](CC(=O)O)C(=O)N[C@H](C)C(=O)N[C@@H](CC(=O)O)C(=O)NCC(=O)N[C@H](CO)C(=O)N[C@@H]([C@H](C)CC(=O)O)C(=O)N[C@@H](CC(=O)c2ccccc2N)C(=O)O[C@@H]1C`
67
